Reference for the values: patent US10590140B2

target-of-assay: human α2δ-1 subunit of Cav2.2 calcium channel (Homo sapiens (Human))
test-method-notes: Binding assay to human α2δ-1 subunit of Cav2.2 calcium channel ([3H]-Gabapentin)
recorded-conditions: Table 2, dual compounds; [3H]-Gabapentin binding; read-out: Ki (nM) α2δ-1
Provide the reported Ki of each item.

Batch of 3 compounds: report Ki for each.
1. CCNc1ncc2c(n1)N(C)CCN(Cc1ccc(COC(CCNC)c3ccccc3)cc1)C2=O (centres unmarked)
2. CNCCC(OCc1ccc(N2CCN(C)c3nc(SC)ncc3C2=O)cc1)c1cccs1 (centres unmarked)
3. CNCC[C@@H](OCc1cccc(N2CCN(C)c3nc(N)ncc3C2=O)c1)c1ccccc1

Resp:
> 3000 nM
> 3000 nM
500 to 3000 nM

Can you give me Ki for all of these, one by one?
1. CCNc1ncc2c(n1)N(C)CCN(c1cccc(-n3cc(CN(C)Cc4ccc(F)cc4)nn3)c1)C2=O
2. CNCC[C@H](OCc1cccc(N2CCN(C)c3nc(SC)ncc3C2=O)c1)c1ccccc1
3. CNCC[C@@H](OCc1cccc(N2CCN(C)c3ncncc3C2=O)c1)c1ccccc1

Resp:
["500 to 3000 nM", "> 3000 nM", "500 to 3000 nM"]

Kindly give each listed record's Ki.
1. CCNc1ncc2c(n1)N(C)CCN(c1cccc(C(C)(C)CNC)c1)C2=O
2. CNCC[C@@H](Oc1ccc(CN2CCN(C)c3ncncc3C2=O)cc1)c1ccccc1
3. CNCC[C@@H](Oc1cccc(N2CCN(C)c3nc(SC)ncc3C2=O)c1)c1ccccc1
4. CNCC(OCc1cccc(CN2CCN(C)c3nc(SC)ncc3C2=O)c1)c1ccccc1 (centres unmarked)

Resp:
1: 500 to 3000 nM; 2: > 3000 nM; 3: 500 to 3000 nM; 4: > 3000 nM

* * *

Please respond with reported Ki for every item in the list.
target-of-assay: human α2δ-1 subunit of Cav2.2 calcium channel (Homo sapiens (Human), UniProt P54289)
Sequence (P54289 25-1103): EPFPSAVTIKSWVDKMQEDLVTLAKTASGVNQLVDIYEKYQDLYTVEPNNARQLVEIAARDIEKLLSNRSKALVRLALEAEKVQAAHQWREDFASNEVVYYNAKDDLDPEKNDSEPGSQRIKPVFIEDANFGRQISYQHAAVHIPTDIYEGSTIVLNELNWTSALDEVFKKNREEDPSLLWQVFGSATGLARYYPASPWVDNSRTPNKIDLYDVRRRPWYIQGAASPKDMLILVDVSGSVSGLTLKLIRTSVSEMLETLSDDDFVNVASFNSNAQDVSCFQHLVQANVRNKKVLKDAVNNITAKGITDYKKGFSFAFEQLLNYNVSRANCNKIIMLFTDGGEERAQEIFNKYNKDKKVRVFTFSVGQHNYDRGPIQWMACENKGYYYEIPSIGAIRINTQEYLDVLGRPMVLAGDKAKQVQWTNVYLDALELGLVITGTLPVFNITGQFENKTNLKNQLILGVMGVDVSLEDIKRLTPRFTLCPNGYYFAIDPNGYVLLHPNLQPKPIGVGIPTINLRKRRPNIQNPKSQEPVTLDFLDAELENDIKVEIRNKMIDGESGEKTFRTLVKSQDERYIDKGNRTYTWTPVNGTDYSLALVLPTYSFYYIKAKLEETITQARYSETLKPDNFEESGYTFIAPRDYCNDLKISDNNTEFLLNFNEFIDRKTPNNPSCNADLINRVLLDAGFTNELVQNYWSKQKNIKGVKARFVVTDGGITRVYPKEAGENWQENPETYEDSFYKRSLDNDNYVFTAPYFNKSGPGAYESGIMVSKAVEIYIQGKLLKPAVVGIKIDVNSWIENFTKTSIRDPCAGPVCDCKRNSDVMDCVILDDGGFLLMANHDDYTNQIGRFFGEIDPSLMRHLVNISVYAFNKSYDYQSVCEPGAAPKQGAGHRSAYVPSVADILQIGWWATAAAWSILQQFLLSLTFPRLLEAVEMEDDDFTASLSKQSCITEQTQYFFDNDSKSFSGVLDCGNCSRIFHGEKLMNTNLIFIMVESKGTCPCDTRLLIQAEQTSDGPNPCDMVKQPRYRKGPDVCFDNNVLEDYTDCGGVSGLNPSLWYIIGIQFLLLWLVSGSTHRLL
test-method-notes: Binding assay to human α2δ-1 subunit of Cav2.2 calcium channel ([3H]-Gabapentin)
recorded-conditions: binding to α2δ-1, [3H]-Gabapentin; read-out: Ki (nM) α2δ-1

Use the examples below as a reference point.
molecule: CCNc1ncc2c(n1)N(C)CCN(c1ccc(COC(CCNC)c3cccs3)cc1)C2=O (centres unmarked)
target-of-assay: human α2δ-1 subunit of Cav2.2 calcium channel (Homo sapiens (Human), UniProt P54289)
assay-endpoint: Ki
value-measured: > 3000 nM
//
molecule: CCNc1ncc2c(n1)N(C)CCN(c1cccc(CO[C@@H](CCN(C)C(=O)OC(C)(C)C)c3ccccc3)c1)C2=O
target-of-assay: human α2δ-1 subunit of Cav2.2 calcium channel (Homo sapiens (Human), UniProt P54289)
assay-endpoint: Ki
value-measured: > 3000 nM
//
molecule: CCNc1ncc2c(n1)N(C)CCN(c1cccc(C3=CCN(C(=O)OC(C)(C)C)CC3)c1)C2=O
target-of-assay: human α2δ-1 subunit of Cav2.2 calcium channel (Homo sapiens (Human), UniProt P54289)
assay-endpoint: Ki
value-measured: > 3000 nM
//
molecule: CCNc1ncc2c(n1)N(C)CCN(c1cccc(-n3cc(CN4CCc5ccccc5C4)nn3)c1)C2=O
target-of-assay: human α2δ-1 subunit of Cav2.2 calcium channel (Homo sapiens (Human), UniProt P54289)
assay-endpoint: Ki
value-measured: 500 to 3000 nM
//
molecule: CCNc1ncc2c(n1)N(C)CCN(c1cccc(OC(CCNC)c3cccnc3)c1)C2=O (centres unmarked)
target-of-assay: human α2δ-1 subunit of Cav2.2 calcium channel (Homo sapiens (Human), UniProt P54289)
assay-endpoint: Ki
value-measured: 500 to 3000 nM
//
molecule: CCNc1ncc2c(n1)N(C)CCN(c1cccc(CCN(C)CCc3ccccc3)c1)C2=O
target-of-assay: human α2δ-1 subunit of Cav2.2 calcium channel (Homo sapiens (Human), UniProt P54289)
assay-endpoint: Ki
value-measured: 100 to 500 nM
//
molecule: CNCCC(Oc1ccc(CN2CCN(C)c3nc(OC)ncc3C2=O)cc1)c1cc(C)cs1 (centres unmarked)
target-of-assay: human α2δ-1 subunit of Cav2.2 calcium channel (Homo sapiens (Human), UniProt P54289)
assay-endpoint: Ki
value-measured: 100 to 500 nM

Req: Recorded Ki for CNCC[C@@H](OCc1cccc(N2CCN(C)c3nc(C)ncc3C2=O)c1)c1ccccc1 , please?
Resp: 500 to 3000 nM

* * *

For each record, write down the corresponding Ki.
target-of-assay: human α2δ-1 subunit of Cav2.2 calcium channel (Homo sapiens (Human))
test-method-notes: Binding assay to human α2δ-1 subunit of Cav2.2 calcium channel ([3H]-Gabapentin)
recorded-conditions: binding to α2δ-1, [3H]-Gabapentin; read-out: Ki (nM) α2δ-1

# count of solved cases: 3
molecule: CCNc1ncc2c(n1)N(C)CCN(c1cccc(OC(CN)c3ccccc3)c1)C2=O (stereo not shown) [Example 156]
Ki: > 3000 nM

molecule: CCNc1ncc2c(n1)N(C)CCN(c1cccc(-c3nnc(CN(C)Cc4ccccc4)o3)c1)C2=O [Example 255]
Ki: 100 to 500 nM

molecule: CSc1ncc2c(n1)N(C)CCN(c1cccc(CO[C@H](CCN(C)C(=O)OC(C)(C)C)c3cccs3)c1)C2=O [Example 16]
Ki: > 3000 nM

Note: attention shifts to another entry.
Req: # Ki lookup, item CCNc1ncc2c(n1)N(C)CCN(c1cccc(N3CCC(c4ccccc4)(N(C)C)CC3)c1)C2=O [Example 312]
Resp: 500 to 3000 nM

* * *

target-of-assay: human α2δ-1 subunit of Cav2.2 calcium channel (Homo sapiens (Human))
test-method-notes: Binding assay to human α2δ-1 subunit of Cav2.2 calcium channel ([3H]-Gabapentin)
recorded-conditions: binding to α2δ-1, [3H]-Gabapentin; read-out: Ki (nM) α2δ-1
assay-endpoint: Ki

compound: CCNc1ncc2c(n1)N(C)CCN(c1cccc(C(C)(C)CNC)c1)C2=O
assay-endpoint: Ki
value-measured: 500 to 3000 nM
//
compound: CCNc1ncc2c(n1)N(C)CCN(c1cccc(OCCN(C)C(=O)OC(C)(C)C)c1)C2=O
assay-endpoint: Ki
value-measured: > 3000 nM
//
compound: CSc1ncc2c(n1)N(C)CCN(c1cccc(OCCCN(Cc3ccccc3)C(=O)OC(C)(C)C)c1)C2=O
assay-endpoint: Ki
value-measured: > 3000 nM
//
compound: CCNc1ncc2c(n1)N(C)CCN(c1cccc(-n3cc(CNCCOCCO)nn3)c1)C2=O
assay-endpoint: Ki
value-measured: 100 to 500 nM
//
compound: CCNc1ncc2c(n1)N(C)CCN(c1cccc(OC(CN(C)Cc3ccccc3)C(C)C)c1)C2=O (centres unmarked)
assay-endpoint: Ki
value-measured: 500 to 3000 nM
//
compound: CCNc1ncc2c(n1)N(C)CCN(c1cccc(CO[C@H](CCNC)c3cccs3)c1)C2=O
assay-endpoint: Ki
value-measured: 100 to 500 nM

Consider the following items and state reported Ki for each.
1. CNCC[C@H](Oc1ccc(CN2CCN(C)c3nc(OC)ncc3C2=O)cc1C)c1cccs1
2. CCNc1ncc2c(n1)N(C)CCN(c1cccc(CCOS(=O)(=O)c3ccc(C)cc3)c1)C2=O
3. CNCCC(Oc1ccc(CN2CCN(C)c3nc(OC)ncc3C2=O)cc1)c1ccccc1F (centres unmarked)
4. COc1cccc(N2CCN(C)c3nc(SC)ncc3C2=O)c1
5. CCNc1ncc2c(n1)N(C)CCN(c1cccc(C(=O)OC)c1)C2=O
6. CCNc1ncc2c(n1)N(C)CCN(c1cccc(-c3nnc(C)o3)c1)C2

Resp:
1: 100 to 500 nM; 2: > 3000 nM; 3: 500 to 3000 nM; 4: > 3000 nM; 5: 100 to 500 nM; 6: 500 to 3000 nM

* * *

target-of-assay: human α2δ-1 subunit of Cav2.2 calcium channel (Homo sapiens (Human), UniProt P54289)
test-method-notes: Binding assay to human α2δ-1 subunit of Cav2.2 calcium channel ([3H]-Gabapentin)
recorded-conditions: binding to α2δ-1, [3H]-Gabapentin; read-out: Ki (nM) α2δ-1
assay-endpoint: Ki

Before answering, review these 5 worked examples.
compound: CCNc1ncc2c(n1)N(C)CCN(c1cccc(-n3cc(CN(C)Cc4ccc(F)cc4)nn3)c1)C2=O [Example 287]
value-measured: 500 to 3000 nM
//
compound: CNCC(Oc1ccccc1CN1CCN(C)c2ncncc2C1=O)c1ccccc1 (centres unmarked) [Example 432]
value-measured: > 3000 nM
//
compound: COc1ncc2c(n1)N(C)CCN(c1cccc(COC(CCN(C)C(=O)OC(C)(C)C)c3cccs3)c1)C2=O (centres unmarked) [Example 139]
value-measured: > 3000 nM
//
compound: CSc1ncc2c(n1)N(C)CCN(c1cccc(COC3(c4ccccc4)CCN(C(=O)OC(C)(C)C)CC3)c1)C2=O [Example 28]
value-measured: > 3000 nM
//
compound: CCN1CCN(Cc2ccc(O[C@@H](CCNC)c3cccs3)cc2)C(=O)c2cncnc21 [Example 398]
value-measured: 100 to 500 nM

Please give Ki for each item listed below.
1. CCNc1ncc2c(n1)N(C)CCN(c1cccc(C3CCN(C(=O)OC(C)(C)C)CC3)c1)C2=O [Example 234]
2. CN(CCC(Oc1cccc(N2CCN(C)c3ncncc3C2=O)c1)c1cccs1)C(=O)OCC[Si](C)(C)C (centres unmarked) [Example 147]

Resp:
1. > 3000 nM
2. > 3000 nM

Req: Given CCNCc1cn(-c2cccc(N3CCN(C)c4nc(NCC)ncc4C3=O)c2)nn1 [Example 286] , state its recorded Ki.
Resp: 100 to 500 nM
